# target_desc: T1, TNFR1 (Homo sapiens, UniProt P19438)
# T1 chain: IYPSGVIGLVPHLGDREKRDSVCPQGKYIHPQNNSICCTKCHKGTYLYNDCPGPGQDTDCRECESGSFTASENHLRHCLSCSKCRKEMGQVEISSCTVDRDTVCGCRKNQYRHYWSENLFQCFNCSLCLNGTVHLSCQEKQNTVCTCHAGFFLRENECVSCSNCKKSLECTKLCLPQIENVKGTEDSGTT
# procedure_summary: yeast display SC50
quantity_measured: apparent Kd (screen) (nM)

Recorded apparent Kd (screen), per entry:
L25F (designed binder) SMEEEVEKAAKEYEKKKKEAIEKHFEKLKAKDKEAAERFLKELEEAAKEYAKDEAKTMSEEEAKRRAKKYKEKVLLSELSEEEQKEIKEAEEKLVRTILKYVEEAAK	0.49
L28V (designed binder) SMEEEVEKAAKEYEKKKKEAIEKHLEKVKAKDKEAAERFLKELEEAAKEYAKDEAKTMSEEEAKRRAKKYKEKVLLSELSEEEQKEIKEAEEKLVRTILKYVEEAAK	0.79

I: V6C (designed binder) SMEEECEKAAKEYEKKKKEAIEKHLEKLKAKDKEAAERFLKELEEAAKEYAKDEAKTMSEEEAKRRAKKYKEKVLLSELSEEEQKEIKEAEEKLVRTILKYVEEAAK
II: E19R (designed binder) SMEEEVEKAAKEYEKKKKRAIEKHLEKLKAKDKEAAERFLKELEEAAKEYAKDEAKTMSEEEAKRRAKKYKEKVLLSELSEEEQKEIKEAEEKLVRTILKYVEEAAK
In: Please indicate which item has the smaller measured apparent Kd (screen): I versus II Response format: the label of the selected entry.
Out: II
(II: 0.446 nM, I: 1.27 nM)
